ASSAYED_SYSTEM: T1, Human TROP2 ECD (31-274 AA), biotinylated (human, UniProt P09758 31-274, biotinylated (site not stated))
T1 construct: also called tumor-associated calcium signal transducer 2; Human TROP2-biotin
T1 sequence: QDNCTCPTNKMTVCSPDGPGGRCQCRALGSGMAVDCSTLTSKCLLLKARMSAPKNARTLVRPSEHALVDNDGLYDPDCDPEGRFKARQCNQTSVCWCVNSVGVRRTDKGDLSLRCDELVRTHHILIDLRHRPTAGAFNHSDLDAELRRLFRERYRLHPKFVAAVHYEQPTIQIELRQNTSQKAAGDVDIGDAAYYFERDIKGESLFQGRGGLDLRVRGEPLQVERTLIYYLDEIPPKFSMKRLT
METHOD_NOTES: ELISA, biotinylated TROP2 ECD on neutravidin plate, Fab titrated
PROPERTY: pEC50
The scale used: pEC50 is minus the common logarithm of the concentration in molar units.

### Prompt Consider the binder TBD-14 (anti-TROP2 Fab, HC F101A) (Fab, V domains shown) VH: QVQLQQSGSELKKPGASVKVSCKASGYTFTNYGMNWVKQAPGQGLKWMGWINTYTGEPTYTDDFKGRFAFSLDTSVSTAYLQISSLKADDTAVYFCARGGAGSSYWYFDVWGQGSLVTVSS VL: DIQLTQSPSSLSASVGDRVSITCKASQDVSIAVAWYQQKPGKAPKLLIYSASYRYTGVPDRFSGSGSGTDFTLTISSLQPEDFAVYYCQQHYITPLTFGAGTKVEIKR and give its measured pEC50.
### Response 7.41
